# measurement target: Recombinant human HDAC8 (Homo sapiens, UniProt Q9BY41)
# Construct: purchased BPS Biosciences
# Sequence (Q9BY41 whole entry): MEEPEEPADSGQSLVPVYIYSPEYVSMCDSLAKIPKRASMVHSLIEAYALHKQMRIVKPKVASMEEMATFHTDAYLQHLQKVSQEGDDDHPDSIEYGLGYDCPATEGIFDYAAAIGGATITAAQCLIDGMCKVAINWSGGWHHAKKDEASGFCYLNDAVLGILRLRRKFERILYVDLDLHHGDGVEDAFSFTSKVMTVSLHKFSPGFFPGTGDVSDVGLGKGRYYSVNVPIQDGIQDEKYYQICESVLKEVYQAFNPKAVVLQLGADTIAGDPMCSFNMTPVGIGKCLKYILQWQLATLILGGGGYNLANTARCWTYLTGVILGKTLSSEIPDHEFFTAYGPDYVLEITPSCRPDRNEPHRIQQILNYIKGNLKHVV
# protocol text: HDAC inhibitory assay, HDAC8 (Ac-RHK(Ac)K(Ac)-AMC substrate)
# Type: biochemical
# run parameters: test concentration not given; average of triplicate
Each record here notes measured HDAC 8 inhibitory activity.
Response body: numeric value in %, unit text excluded.

Return reported HDAC 8 inhibitory activity; argument: O=C(CNC(=O)c1coc(-c2ccccc2O)n1)Nc1ccccc1
15.0

Return reported HDAC 8 inhibitory activity; argument: O=C(NCCCCNC(=O)C(c1ccccc1)c1ccccc1)c1coc(-c2ccccc2O)n1
0

***
Return reported HDAC 8 inhibitory activity; argument: O=C(O)c1ccc(CNC(=O)c2coc(-c3ccccc3O)n2)cc1
20.0

Return reported HDAC 8 inhibitory activity; argument: O=C(NCc1ccc(-c2ccccc2)cc1)c1coc(-c2ccccc2O)n1
17.9

Return reported HDAC 8 inhibitory activity; argument: O=C(Nc1ccccc1)c1coc(-c2ccccc2O)n1
0

Return reported HDAC 8 inhibitory activity; argument: O=C(NCC(c1ccccc1)c1ccccc1)c1coc(-c2ccccc2O)n1
16.7

Return reported HDAC 8 inhibitory activity; argument: O=C(NCCCCN1C(=O)c2ccccc2C1=O)c1coc(-c2ccccc2O)n1
9.6

Return reported HDAC 8 inhibitory activity; argument: O=C(Nc1ccc(-c2ccccc2)cc1)c1coc(-c2ccccc2O)n1
7.2
